Data origin, for the record: patent US9580430B2

Target: recombinant BRD4 BD1 (Homo sapiens, UniProt O60885)
Construct: for recombinant BRD4 BD1 and BRD4 BD2 proteins
Assay: Competitive fluorescence-polarization (FP) binding assay, BRD4 BD1; further: probe 1.5 nM
Details: competitive FP assay; protein 10 nM, probe […]; read-out: IC50 (nM) BRD4 BD1
reported.property: IC50 (nM)

chemical.structure	measurement.unit	IC50
COc1cc2c(cc1-c1c(C)noc1C)[nH]c1nc(C)nc(Nc3cccc(Cl)c3)c12	nM	34

I = COc1cc2c(cc1-c1c(C)noc1C)[nH]c1nc(C)nc(Nc3cc(C)n(C)n3)c12
II = COc1cc2c(cc1-c1c(C)noc1C)[nH]c1nc(C)nc(Nc3nn(C)c4ccncc34)c12
Hi, I'm comparing two records. Which one has the lower IC50, I or II ? Return value: the label identifying the chosen record. I

---

Test system: MOLM-13
Test: Cell growth inhibition, MOLM-13 leukemia cells (CellTiter-Glo)
Format: cell-based
Settings: Homo sapiens, MOLM-13, 96 h; 4 days; read-out: IC50 (nM) MOLM-13 Cell Line (CellTiter-Glo assay)
reported.property: IC50 (nM)

Example cases with answers are listed next.
compound	IC50 [nM]
COc1cc2c(cc1-c1c(C)noc1C)[nH]c1nc(C)nc(Nc3cccc(C)n3)c12 [Cpd. No. 111]	7
COc1cc2c(cc1-c1c(C)noc1C)[nH]c1nc(C)nc(Nc3cncc(C)c3)c12 [Cpd. No. 108]	19
COc1cc2c(cc1-c1c(C)noc1C)[nH]c1nc(C)nc(Nc3ccnc4ccccc34)c12 [Cpd. No. 247]	113
COc1cc2c(cc1-c1c(C)noc1C)[nH]c1nc(C)nc(Nc3cccc4ncccc34)c12 [Cpd. No. 211]	76

1 = COc1cc2c(cc1-c1c(C)noc1C)[nH]c1nc(C)nc(Nc3c(F)c(C4CC4)nn3C)c12 [Cpd. No. 249]
2 = COc1cc2c(cc1-c1c(C)noc1C)[nH]c1nc(C)nc(Nc3cc(C)nn3C)c12 [Cpd. No. 8]
3 = CCn1nc2c(c1Nc1nc(C)nc3[nH]c4cc(-c5c(C)noc5C)c(OC)cc4c13)CCCC2 [Cpd. No. 142]
4 = COc1cc2c(cc1-c1c(C)noc1C)[nH]c1nc(C)nc(Nc3nn(C)c4cc(F)ccc34)c12 [Cpd. No. 59]
5 = COc1cc2c(cc1-c1c(C)noc1C)[nH]c1nc(C)nc(Nc3sc(C)nc3C)c12 [Cpd. No. 177]
Returns the items ordered by IC50, from maximum to minimum. Write the labels out in the order the request specifies. 4, 1, 5, 2, 3
(4: 401 nM, 1: 159 nM, 5: 78.6 nM, 2: 10.3 nM, 3: 1.1 nM)

a = COc1cc2c(cc1-c1c(C)noc1C)[nH]c1nc(C)nc(Nc3cnn(C)c3C)c12 [Cpd. No. 170]
b = COc1cc2c(cc1-c1c(C)noc1C)[nH]c1nc(C)nc(Nc3cccc(Cl)c3)c12 [Cpd. No. 97]
c = COc1cc2c(cc1-c1c(C)noc1C)[nH]c1nc(C)nc(Nc3cn(C)cn3)c12 [Cpd. No. 166]
d = COc1cc2c(cc1-c1c(C)noc1C)[nH]c1nc(C(C)C)nc(Nc3nn(C)c4ccccc34)c12 [Cpd. No. 18]
e = COc1cc2c(cc1-c1c(C)noc1C)[nH]c1nc(C)nc(Nc3cc(C)nn3C3CCCC3)c12 [Cpd. No. 118]
Could you please order the items by IC50, going from the lowest number to the highest? Reply format: the labels, ordered as requested. e, b, d, a, c
(e: 17.7 nM, b: 43 nM, d: 86.2 nM, a: 131 nM, c: 504 nM)

1 = COc1cc2c(cc1-c1c(C)noc1C)[nH]c1nc(C)nc(Nc3cc(C)nn3C3CC3)c12 [Cpd. No. 192]
2 = COc1cc2c(cc1-c1c(C)noc1C)[nH]c1nc(C)nc(Nc3c4c(nn3CCO)CCC4)c12 [Cpd. No. 150]
1 or 2 : whose IC50 is greater? Give the chosen item's label as your response. 1
(1: 114 nM, 2: 7.2 nM)
